biological target: rat Fatty Acid Amide Hydrolase (FAAH) (Rattus norvegicus (Rat), UniProt P97612); assay: FAAH in vitro fluorescence assay (AAMCA hydrolysis), rat enzyme; type: biochemical; conditions: rat FAAH; read-out: rFAAH IC50
Sequence (P97612 30-579): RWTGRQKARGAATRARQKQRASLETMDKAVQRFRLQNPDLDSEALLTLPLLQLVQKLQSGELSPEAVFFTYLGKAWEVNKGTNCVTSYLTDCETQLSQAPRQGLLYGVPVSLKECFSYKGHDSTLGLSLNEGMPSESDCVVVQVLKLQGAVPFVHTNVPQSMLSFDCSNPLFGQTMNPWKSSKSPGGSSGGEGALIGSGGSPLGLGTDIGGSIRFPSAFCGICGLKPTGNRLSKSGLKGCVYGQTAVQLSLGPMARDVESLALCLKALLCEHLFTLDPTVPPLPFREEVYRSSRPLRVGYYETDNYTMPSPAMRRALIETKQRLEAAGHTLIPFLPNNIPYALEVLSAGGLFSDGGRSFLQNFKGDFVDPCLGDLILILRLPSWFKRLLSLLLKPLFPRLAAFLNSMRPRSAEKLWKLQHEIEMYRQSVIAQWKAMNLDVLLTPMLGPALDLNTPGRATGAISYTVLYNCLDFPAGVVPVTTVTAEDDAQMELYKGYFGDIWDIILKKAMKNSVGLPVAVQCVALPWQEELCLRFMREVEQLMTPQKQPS
assay readout: log10 of IC50 (log10 of the value in nM)
log10 IC50, nM

The compound listed as O=C(NC1CCC(=Cc2cccc(Oc3ccc(C(F)(F)F)cn3)c2)CC1)c1cccnn1 (single isomer, unassigned; (-)) [Example 20.A-16] has a reported log10 of IC50 of 2.06

The compound listed as Nc1ccc(C(=O)NC2CCC(=Cc3cccc(Oc4ccc(C(F)(F)F)cn4)c3)CC2)cn1 (centres unmarked) [Example 2.C-1] has a reported log10 of IC50 of 1.49

The compound listed as O=C(Nc1cnccn1)C1CCC(=Cc2cccc(Oc3ccc(C(F)(F)F)cn3)c2)CC1 (centres unmarked) [Example 1.A-3] has a reported log10 of IC50 of 1.64

The compound listed as Nc1ccc(C(=O)NC2CCC(=Cc3cccc(Oc4ccc(C(F)(F)F)c(Cl)n4)c3)CC2)cn1 (centres unmarked) [Example 2.E-20] has a reported log10 of IC50 of 1.85

The compound listed as O=C(NC1CCC(=Cc2cccc(Oc3ccc(C(F)(F)F)cn3)c2)CC1)c1ccc(NC2CC2)nc1 (centres unmarked) [Example 5.A-10] has a reported log10 of IC50 of 1.87

The compound listed as Cc1cc(C(=O)NC2CCC(=Cc3cccc(Oc4ccc(Cl)c(C)n4)c3)CC2)cnc1N (centres unmarked) [Example 2.E-25] has a reported log10 of IC50 of 1.51

The compound listed as O=C(NC1CCC(=Cc2cccc(Oc3ccc(C(F)(F)F)cn3)c2)CC1)c1cn[nH]n1 (centres unmarked) [Example 2.A-19] has a reported log10 of IC50 of 2.16

The compound listed as O=C(NC1CCC(=Cc2cccc(Oc3ccc(C(F)(F)F)cn3)c2)CC1)c1cncnc1 (centres unmarked) [Example 2.A-12] has a reported log10 of IC50 of 2.00

The compound listed as Cc1cnn(-c2ccc(C(=O)NC3CCC(=Cc4cccc(Oc5ccc(C(F)(F)F)cn5)c4)CC3)cn2)c1 (centres unmarked) [Example 2.B-6] has a reported log10 of IC50 of 1.32

The compound listed as Nc1ncc(C(=O)NC2CCC(=Cc3cccc(Oc4ccc(C(F)(F)F)cn4)c3)CC2)cn1 (single isomer, unassigned; (-)) [Example 20.A-10] has a reported log10 of IC50 of 0.85

The compound listed as Nc1ccc(C(=O)NC2CCC(=Cc3cccc(Oc4ccc(C(F)(F)F)cn4)c3)CC2)cn1 (single isomer, unassigned; (-)) [Example 20.A-4] has a reported log10 of IC50 of 1.04

The compound listed as Nc1ncc(C(=O)NC2CCC(=Cc3cccc(Oc4ccc(C(F)(F)F)cn4)c3)CC2)cn1 (centres unmarked) [Example 2.C-6] has a reported log10 of IC50 of 1.20

The compound listed as O=C(NC1CCC(=Cc2cccc(Oc3ccc(C(F)(F)F)cn3)c2)CC1)c1cn[nH]c1 (centres unmarked) [Example 2.A-9] has a reported log10 of IC50 of 1.72

The compound listed as Cc1[nH]ncc1C(=O)NC1CCC(=Cc2cccc(Oc3ccc(C(F)(F)F)cn3)c2)CC1 (centres unmarked) [Example 2.A-23] has a reported log10 of IC50 of 1.46

----------
target: rat Fatty Acid Amide Hydrolase (FAAH) (Rattus norvegicus (Rat)); test: FAAH in vitro fluorescence assay (AAMCA hydrolysis), rat enzyme; assay type: biochemical
So I've got a bunch of compounds here, and I need their IC50 values.

The compound listed as O=C(NC1CCC(=Cc2cccc(Oc3ccc(C(F)(F)F)cn3)c2)CC1)c1cncc(F)c1 (stereo not shown) [Example 2.A-15] has a reported IC50 of 188 nM

The compound listed as Nc1ncc(C(=O)NC2CCC(=Cc3cccc(Oc4ccc(C(F)(F)F)cn4)c3)CC2)cc1Cl (stereo not shown) [Example 4.A-3] has a reported IC50 of 16 nM

The compound listed as O=C(NC1CCC(=Cc2cccc(Oc3ccc(C(F)(F)F)cn3)c2)CC1)c1c[nH]c2ccccc12 (single isomer, unassigned; (-)) [Example 20.A-18] has a reported IC50 of 35 nM

The compound listed as Nc1cc(C(=O)NC2CCC(=Cc3cccc(Oc4ccc(C(F)(F)F)cn4)c3)CC2)cnc1Cl (stereo not shown) [Example 10.1] has a reported IC50 of 6 nM

----------
target: rat Fatty Acid Amide Hydrolase (FAAH) (Rattus norvegicus (Rat)); experiment: FAAH in vitro fluorescence assay (AAMCA hydrolysis), rat enzyme; format: biochemical; conditions: rat FAAH; read-out: rFAAH IC50
Mark condition met only when IC50 stays strictly below 0.07 µM. Values equal to the cut-off are condition not met.

Task: is_below(IC50, 0.07 µM) for O=C(NC1CCC(=Cc2cccc(Oc3ccc(C(F)(F)F)cn3)c2)CC1)c1ccc(Cl)nc1 (stereo not drawn) ?
Result: condition not met

Task: is_below(IC50, 0.07 µM) for Cc1nc(Oc2cccc(C=C3CCC(NC(=O)c4ccc(N)nc4)CC3)c2)ccc1C(F)(F)F (stereo not drawn) ?
Result: condition met

Task: is_below(IC50, 0.07 µM) for O=C(NC1CCC(=Cc2cccc(Oc3ccc(C(F)(F)F)cn3)c2)CC1)c1cccnn1 (single isomer, unassigned; (+)) [Example 20.A-15] ?
Result: condition not met

Task: is_below(IC50, 0.07 µM) for O=C(NC1CCC(=Cc2cccc(Oc3ccc(C(F)(F)F)cn3)c2)CC1)c1ccc(-c2cn[nH]c2)nc1 (stereo not drawn) ?
Result: condition met

Task: is_below(IC50, 0.07 µM) for Cc1nc(Oc2cccc(C=C3CCC(NC(=O)c4cnc(N)nc4)CC3)c2)ccc1Cl (stereo not drawn) ?
Result: condition met

Task: is_below(IC50, 0.07 µM) for O=C(NC1CCC(=Cc2cccc(Oc3ccc(C(F)(F)F)cn3)c2)CC1)c1cncc(-n2cccn2)c1 (stereo not drawn) ?
Result: condition not met

Task: is_below(IC50, 0.07 µM) for Cc1ccc(C(=O)NC2CCC(=Cc3cccc(Oc4ccc(C(F)(F)F)cn4)c3)CC2)cn1 (stereo not drawn) ?
Result: condition met

Task: is_below(IC50, 0.07 µM) for O=C(NC1CCC(=Cc2cccc(Oc3ccc(C(F)(F)F)cn3)c2)CC1)c1c[nH]c2ccccc12 (stereo not drawn) ?
Result: condition not met

Task: is_below(IC50, 0.07 µM) for O=C(NC1CCC(=Cc2cccc(Oc3ccc(C(F)(F)F)cn3)c2)CC1)c1ccc(C2CC2)nc1 (stereo not drawn) ?
Result: condition met

Task: is_below(IC50, 0.07 µM) for Cc1nc(Oc2cccc(C=C3CCC(NC(=O)c4ccc(N)nc4)CC3)c2)ccc1Cl (stereo not drawn) ?
Result: condition met

Task: is_below(IC50, 0.07 µM) for CCN(C)c1ccc(C(=O)NC2CCC(=Cc3cccc(Oc4ccc(C(F)(F)F)cn4)c3)CC2)cn1 (stereo not drawn) ?
Result: condition met

Task: is_below(IC50, 0.07 µM) for N#Cc1nc(Oc2cccc(C=C3CCC(NC(=O)c4ccc(N)nc4)CC3)c2)ccc1C(F)(F)F (stereo not drawn) ?
Result: condition not met

Task: is_below(IC50, 0.07 µM) for O=C(NC1CCC(=Cc2cccc(Oc3ccc(C(F)(F)F)cn3)c2)CC1)c1cccnc1F (stereo not drawn) ?
Result: condition not met

Task: is_below(IC50, 0.07 µM) for CNc1ccc(C(=O)NC2CCC(=Cc3cccc(Oc4ccc(C(F)(F)F)cn4)c3)CC2)cn1 (stereo not drawn) ?
Result: condition met

Task: is_below(IC50, 0.07 µM) for O=C(NC1CCC(=Cc2cccc(Oc3ccc(C(F)(F)F)cn3)c2)CC1)c1cnc2[nH]ccc2c1 (single isomer, unassigned; (+)) [Example 20.A-13] ?
Result: condition not met

----------
So I've got a bunch of compounds here, and I need their pIC50 values.
molecular target: human Fatty Acid Amide Hydrolase (FAAH) (Homo sapiens (Human)); assay: biochemical; settings: human FAAH; read-out: hFAAH IC50
Sequence (O00519 30-579): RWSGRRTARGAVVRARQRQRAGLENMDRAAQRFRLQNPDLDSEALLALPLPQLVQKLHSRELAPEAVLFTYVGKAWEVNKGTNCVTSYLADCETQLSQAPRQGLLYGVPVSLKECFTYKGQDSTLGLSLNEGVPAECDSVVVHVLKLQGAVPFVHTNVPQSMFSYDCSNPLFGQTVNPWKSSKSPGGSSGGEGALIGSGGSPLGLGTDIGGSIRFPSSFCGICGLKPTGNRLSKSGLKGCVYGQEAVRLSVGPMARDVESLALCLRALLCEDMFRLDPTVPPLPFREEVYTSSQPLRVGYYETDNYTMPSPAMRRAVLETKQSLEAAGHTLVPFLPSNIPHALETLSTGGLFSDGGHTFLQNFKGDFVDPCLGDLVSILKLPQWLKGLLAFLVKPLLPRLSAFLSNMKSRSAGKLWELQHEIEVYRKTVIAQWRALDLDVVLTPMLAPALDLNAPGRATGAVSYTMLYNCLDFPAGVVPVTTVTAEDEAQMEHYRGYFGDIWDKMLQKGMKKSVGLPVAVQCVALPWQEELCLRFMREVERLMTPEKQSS
pIC50 field: float, defined as -log10 of concentration (mol/L).

Param item: CC(C)c1[nH]ncc1C(=O)NC1CCC(=Cc2cccc(Oc3ccc(C(F)(F)F)cn3)c2)CC1 (stereo not shown) ; param system: human Fatty Acid Amide Hydrolase (FAAH) (Homo sapiens (Human)); output pIC50: 7.20

Param item: Cc1cnn(-c2ccc(C(=O)NC3CCC(=Cc4cccc(Oc5ccc(C(F)(F)F)cn5)c4)CC3)cn2)c1 (stereo not shown) ; param system: human Fatty Acid Amide Hydrolase (FAAH) (Homo sapiens (Human)); output pIC50: 8.15

Param item: Cc1cc(C(=O)NC2CCC(=Cc3cccc(Oc4ccc(C(F)(F)F)cn4)c3)CC2)cnc1N (single isomer, unassigned; (-)) [Example 20.A-6] ; param system: human Fatty Acid Amide Hydrolase (FAAH) (Homo sapiens (Human)); output pIC50: 9.00

Param item: O=C(NC1CCC(=Cc2cccc(Oc3ccc(C(F)(F)F)cn3)c2)CC1)c1ccc(-c2cc[nH]n2)nc1 (stereo not shown) ; param system: human Fatty Acid Amide Hydrolase (FAAH) (Homo sapiens (Human)); output pIC50: 8.70

Param item: O=C(Nc1ncc(Cl)s1)C1CCC(=Cc2cccc(Oc3ccc(C(F)(F)F)cn3)c2)CC1 (stereo not shown) ; param system: human Fatty Acid Amide Hydrolase (FAAH) (Homo sapiens (Human)); output pIC50: 7.80

Param item: O=C(NC1CCC(=Cc2cccc(Oc3ccc(C(F)(F)F)cn3)c2)CC1)c1ccc(C(F)(F)F)nc1 (stereo not shown) ; param system: human Fatty Acid Amide Hydrolase (FAAH) (Homo sapiens (Human)); output pIC50: 6.99

Param item: Cc1nc(Oc2cccc(C=C3CCC(NC(=O)c4cnc(N)nc4)CC3)c2)ccc1C(F)(F)F (stereo not shown) ; param system: human Fatty Acid Amide Hydrolase (FAAH) (Homo sapiens (Human)); output pIC50: 8.70

Numbers sourced from patent US9682953B2.
